Catalogue of Binding to heavy chain (OD) readings, one per entry.
# SYSTEM TESTED: T1, recombinant heavy chain Protein S (human, UniProt P07225 42-296)
# T1 construct: Fragment of Protein S spanning amino acids 42-296, expressed and purified from HEK293 cells; also called Protein S heavy chain; heavy chain of Protein S
# T1 sequence: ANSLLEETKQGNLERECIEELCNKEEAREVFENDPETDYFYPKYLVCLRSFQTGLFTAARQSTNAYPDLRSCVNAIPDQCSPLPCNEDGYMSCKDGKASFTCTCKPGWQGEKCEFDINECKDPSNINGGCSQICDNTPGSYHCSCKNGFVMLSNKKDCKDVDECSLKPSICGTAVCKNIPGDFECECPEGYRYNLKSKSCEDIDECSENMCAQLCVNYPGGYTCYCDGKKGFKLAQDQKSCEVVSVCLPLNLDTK
# ASSAY OVERVIEW: ELISA; plate coated with recombinant Protein S heavy chain; 1 mM CaCl2
PROPERTY LABEL: Binding to heavy chain (OD)

INSERT INTO results (binder, recorded_measurement) VALUES
  ('Antibody 36 (antibody, V domains shown, Human variable region with rat Fc) VH: EVQLVESGGGLVKPGGSLRLSCAASGFTFSSYNMNWVRQAPGRGLDWVSSISSSSSYIYYADSVKGRFTISRDNAKNSLYLQMNTLRAEDTAVYYCARDEEWELLTGFDYWGQGTLVTVSS VL: DIQMTQSPSSLSASVGDRVTITCRASQGINNYLAWFQQKPGKAPKSLIYAASNLQSGVPLKFSGSGSGTDFTLTISSLQPEDFATYYCQQYNSYPITFGQGTRLEIK', '0.08 OD'),
  ('Antibody 35 (antibody, V domains shown, Human variable region with rat Fc) VH: QLQLQESGPGLVKPSETLSLTCTVSGGSITNSNYYWGWIRQPPGKGLEWIGSVYYSGTTYYNPSLKSRVTISVDPSKNQFSLKLSSVTAADTAVYYCVRESESYYYYGSDVWGQGTTVTVSS VL: DIQMTQSPSSLSASVGDRVTITCRASQGINNYLAWFQQKPGKAPKSLIYAASSLQSGVPSKFSGSGSGTDFTLTISSLQPEDFATYYCQQYNSYPRTFGQGTKVEIK', '0.08 OD'),
  ('Antibody 40 (antibody, V domains shown, Human variable region with rat Fc) VH: EVQLVESGGGLVQPGGSLRLSCAASGFTFSSYSMNWVRQAPGKGLEWVAYISSSTRTIFYADSVKGRFTISRDNAKNSLYLQMNSLRDEDTAFYYCARERSAFDYWGQGTLVTVSS VL: SYVLTQPPSVSVAPGQTARITCGGDNIGGKSVHWYQQKPGQAPVMVVYDDSDRPSGIPERFAGSNSGNTATLAISRVEAGDEADYYCQVWEITSDHPAFGGGTRLTVL', '0.11 OD');
